Assay: Binding affinity to aggregated amyloid beta (1 to 40) by fluorescence titration analysis
quantityName: Kd (nM)

A = Oc1ccc(/C=C/c2ccc(/C=C/c3ccccc3)cc2)cc1
B = Oc1ccc(/C=C/c2ccc(O)cc2)cc1 [TRANS-4,4'-DIHYDROXYSTILBENE]
Qu. Between these two entries, A and B , state which has the higher Kd. Please respond with the label that marks your chosen entry.
Ans. B

I = Oc1ccc(/C=C/c2ccc(/C=C/c3cc(O)cc(O)c3)cc2)cc1
II = Oc1ccc(/C=C/c2ccc(/C=C/c3cccc(O)c3)cc2)cc1
Qu. Task for the reader: decide whether I or II has the larger Kd. // caller expects the label of the chosen entry
Ans. II

1 = Oc1cccc(/C=C/c2ccc(/C=C/c3ccc(O)c(O)c3)cc2)c1
2 = Oc1ccccc1/C=C/c1ccc(/C=C/c2ccccc2O)cc1
3 = Oc1ccc(C#Cc2ccc(C#Cc3ccc(O)cc3)cc2)cc1
Qu. Put these in order: smallest Kd first, largest last. Answer format: the labels, ordered as requested.
Ans. 3, 1, 2
(3: 54 nM, 1: 200 nM, 2: 800 nM)

1 = Oc1ccc(/C=C/c2ccc(/C=C/c3ccc(O)c(O)c3)cc2)cc1
2 = Oc1ccc(/C=C/c2ccc(/C=C/c3ccc(O)cc3)cc2)cc1
3 = Oc1ccc(/C=C/c2ccccc2/C=C/c2ccc(O)cc2)cc1
Qu. Rank ascending by Kd. List the labels, following the order given in the request.
Ans. 2, 1, 3

###

Species: Mus musculus
Test: Binding affinity to beta-amyloid plaque in APP/PS1 transgenic mouse brain assessed as signal-to-noise ratio after 30 mins by DAPI staining
Format: tissue-based
quantityName: Ratio

Observe how each entry below is paired with its result.
molecule: Oc1cccc(/C=C/c2ccc(/C=C/c3ccc(O)c(O)c3)cc2)c1
quantityName: Ratio
testResult: 5.6
//
molecule: Oc1cccc(/C=C/c2ccc(/C=C/c3cccc(O)c3)cc2)c1
quantityName: Ratio
testResult: 9.6
//
molecule: Oc1ccc(C#Cc2ccc(C#Cc3ccc(O)cc3)cc2)cc1
quantityName: Ratio
testResult: 5.9
//
molecule: Oc1cc(O)cc(/C=C/c2ccc(/C=C/c3cc(O)cc(O)c3)cc2)c1
quantityName: Ratio
testResult: 9.6
//
molecule: Oc1ccc(/C=C/c2ccc(/C=C/c3cc(O)cc(O)c3)cc2)cc1
quantityName: Ratio
testResult: 3.8
//
molecule: Oc1ccc(/C=C/c2cccc(/C=C/c3ccc(O)cc3)c2)cc1
quantityName: Ratio
testResult: 3.1
//
molecule: Oc1ccc(/C=C/c2ccccc2/C=C/c2ccc(O)cc2)cc1
quantityName: Ratio
testResult: 5.1
//
molecule: Oc1ccc(/C=C/c2ccc(/C=C/c3cccc(O)c3)cc2)cc1
quantityName: Ratio
testResult: 9

A = Oc1ccccc1/C=C/c1ccc(/C=C/c2ccccc2O)cc1
B = Oc1ccc(/C=C/c2ccc(O)cc2)cc1 [TRANS-4,4'-DIHYDROXYSTILBENE]
Qu. // which entry has the larger Ratio value, A or B ? Pick one; state its label.
Ans. A
(A: 11, B: 5.2)

1 = Oc1ccc(/C=C/c2ccc(/C=C/c3ccc(O)c(O)c3)cc2)cc1
2 = Oc1ccc(/C=C/c2ccc(/C=C/c3ccc(O)cc3)cc2)cc1
Qu. Between 1 and 2 , which one shows the larger Ratio value? # respond with the chosen item's label
Ans. 2

###

Assay: Binding affinity to aggregated amyloid beta (1 to 40) by fluorescence titration analysis
quantityName: Kd (nM)

P = Oc1ccc(/C=C/c2cccc(/C=C/c3ccc(O)cc3)c2)cc1
Q = Oc1cc(O)cc(/C=C/c2ccc(/C=C/c3cc(O)cc(O)c3)cc2)c1
R = Oc1cccc(/C=C/c2ccc(/C=C/c3cccc(O)c3)cc2)c1
Qu. Kindly sort the 3 compounds above from the smallest to the largest Kd. Dear reader, please state the labels in the requested order.
Ans. R, Q, P
